EXPERIMENTAL CONDITIONS: in ethanol, 298.15 K
TEST READOUT: solubility (mole fraction)

[[record]]
structure_as_smiles = "CCCN(CCc1cccs1)[C@H]1CCc2c(O)cccc2C1"
readout_value = 0.012


* * *

EXPERIMENTAL CONDITIONS: in isopropanol, 303.15 K
TEST READOUT: solubility (mole fraction)

[[record]]
structure_as_smiles = "CCCN(CCc1cccs1)[C@H]1CCc2c(O)cccc2C1"
readout_value = 0.0163


* * *

EXPERIMENTAL CONDITIONS: in n-butanol, 293.15 K
TEST READOUT: solubility (mole fraction)

[[record]]
structure_as_smiles = "CCCN(CCc1cccs1)[C@H]1CCc2c(O)cccc2C1"
readout_value = 0.0163


The reported measurements were obtained from BigSolDB 2.1.
